# Assay: Pharmacokinetic study in rats
# Type: in vivo, SD rats
# Stated Conditions: rat, PO, 2 mg/kg
Quantity: F

# annotated cases, reported F shown
Molecule	F
Fc1ccc2c(c1CNc1ncc(OC3CCOCC3)c3nncn13)CCO2	98.86%
Fc1ccc2c(c1CNc1ncc(OCC3CCOC3)c3nncn13)CCO2 (centres unmarked)	82.62%
CC1(COc2cnc(NCc3c(F)ccc4c3CCO4)n3cnnc23)COC1	47.22%
O=C1CCCN1c1cnc(NCc2c(F)ccc3c2CCO3)n2cnnc12	60.72%

Form field F, entry `Fc1ccc2c(c1CNc1ncc(OCC3COC3)c3nncn13)CCO2` : 89.41%

// F value for `CN(C(=O)C1CC1)c1cnc(NCc2c(F)ccc3c2CCO3)n2cnnc12` : 48.40%

Sure, the documented F for `O=C(Nc1cnc(NCc2c(F)ccc3c2CCO3)n2cnnc12)C1CC1` is 58.53%

According to the records, this molecule `CCN(C(=O)C1CC1)c1cnc(NCc2c(F)ccc3c2CCO3)n2cnnc12` displays F of 40.87%

====

Known half-life of a selection of compounds
# Assay: Pharmacokinetic study in canine
# Type: in vivo, Beagle dogs
# Stated Conditions: male, plasma; Beagle dog, PO, 5 mg/kg
# number only, unit h dropped from output

Examples from the recorded data:
1) Fc1ccc2c(c1CNc1ncc(OC3CCOCC3)c3nncn13)CCO2 5.18
2) Fc1ccc2c(c1CNc1ncc(OCC3COC3)c3nncn13)CCO2 2.09

Form: compound = `CN(C(=O)C1CC1)c1cnc(NCc2c(F)ccc3c2CCO3)n2cnnc12` ; half-life = 4.29

====

# Assay: Pharmacokinetic study in canine
# Format: in vivo, Beagle dogs
# Stated Conditions: male, plasma; Beagle dog, IV, 1 mg/kg; read-out: MRT0-∞
Recorded MRT inf by entry
Just the number please, in h, no unit attached.

Known MRT inf results, listed for orientation:
1. Fc1ccc2c(c1CNc1ncc(OC3CCOCC3)c3nncn13)CCO2 8.39
2. CN(C(=O)C1CC1)c1cnc(NCc2c(F)ccc3c2CCO3)n2cnnc12 5.35

Turning to the following compound.
Summary for this compound, `Fc1ccc2c(c1CNc1ncc(OCC3COC3)c3nncn13)CCO2` : MRT inf is 2.86

====

# Tested on: Pfeiffer cells
# Assay: Cell proliferation assay, Pfeiffer
# Format: cell-based
# Stated Conditions: Homo sapiens, cultured to the 9th day, read-out: Anti-proliferation IC50
# Protocol: Human B-cell non-Hodgkin's lymphoma cells WSU-DLCL2, Karpas422 and Pfeiffer were cultured in cell culture flasks in a sterile incubator with 95% relative humidity and 5% CO2 at 37° C. […] After that, the number of viable cells was determined by Vi-CELL (Beckman Coulter) for WSU-DLCL2 and Pfeiffer every 3 days, and for Karpas422 on days 4, 7, and 11, respectively. The cells counted each time were seeded into a new 12-well plate at the same density, and supplemented with fresh medium to 1 mL. […]
# key: entry, value: pIC50
Lab note: report pIC50 as minus log10 of the concentration in molar units, number only.

Previously resolved entries follow.
Molecule	Test Target	Quantity	Reading
Fc1ccc2c(c1CNc1ncc(OCC3COC3)c3nncn13)CCO2	Pfeiffer cells	pIC50	7.09
CN(C(=O)C1CC1)c1cnc(NCc2c(F)ccc3c2CCO3)n2cnnc12	Pfeiffer cells	pIC50	7.98
Fc1ccc2c(c1CNc1ncc(OC3CCOCC3)c3nncn13)CCO2	Pfeiffer cells	pIC50	7.25

Consider the additional molecule presented here.
pIC50 reported for this molecule Fc1ccc2c(c1CNc1ncc(OCC3CCOC3)c3nncn13)CCO2 (stereo not shown) : 7.32
